Tested on: IL-6 secretion, ABC-DLBCL OCI-LY-10 cells
MEASUREMENT_DESCRIPTION: IL-6 secretion by OCI-LY-10 cells (MesoScale)
Format: cell-based
ASSAY_CONTEXT: Homo sapiens, OCI-Ly10; 6 independent experiments; read-out: IC50, IL-6 secretion (mean±SEM)
MEASURED_PROPERTY: IC50 (µM)

>  <MOLECULE>
C=CC(=O)N[C@H]1CCC[C@H]1NC(=O)c1sc2nccc3c2c1NC(=O)N3c1cnc(CC(C)C)cc1C (atropisomer, axis not shown)

>  <READOUT_NUMBER>
0.016

$$$$

* * *

Protein target, amino acids: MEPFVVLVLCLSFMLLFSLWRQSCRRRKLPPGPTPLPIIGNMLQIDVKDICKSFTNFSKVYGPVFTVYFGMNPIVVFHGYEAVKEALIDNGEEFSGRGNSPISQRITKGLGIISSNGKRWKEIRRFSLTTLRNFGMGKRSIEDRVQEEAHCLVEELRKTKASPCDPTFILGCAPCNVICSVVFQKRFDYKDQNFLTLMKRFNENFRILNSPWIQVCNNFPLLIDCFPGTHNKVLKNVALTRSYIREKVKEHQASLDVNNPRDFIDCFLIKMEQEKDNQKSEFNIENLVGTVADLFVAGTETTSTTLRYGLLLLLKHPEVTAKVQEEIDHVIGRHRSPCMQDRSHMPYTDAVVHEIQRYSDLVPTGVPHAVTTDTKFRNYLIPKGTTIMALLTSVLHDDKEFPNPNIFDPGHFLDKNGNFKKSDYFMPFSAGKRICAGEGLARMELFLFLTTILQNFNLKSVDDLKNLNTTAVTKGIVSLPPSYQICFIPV
pIC50: −log10 of the molar value.
MEASURED_PROPERTY: pIC50

>  <COMPOUND>
C=CC(=O)N[C@H]1CCC[C@H]1NC(=O)c1sc2nccc3c2c1NC(=O)N3c1cnc(CC(C)C)cc1C (atropisomer, axis not shown)

>  <READOUT_NUMBER>
4.80

$$$$

* * *

MEASUREMENT_DESCRIPTION: Phase 1 first-in-human study, plasma pharmacokinetics
Assay type: in vivo
ASSAY_CONTEXT: male, human, plasma, po, 400 mg, single 400 mg oral solution, male fasted; read-out: AUC0-24 h
Protocol: Safety, tolerability, PK, and BTKO were assessed for six doses of compound of Formula (III) oral solution (4, 12, 36, 100, 200, 400 mg) in participants under fasted conditions. The SAD part comprised 10 cohorts of 8 participants each (FIG. 1). […] Safety, tolerability, and PK of a solid dose formulation of compound of Formula (III) were assessed in an additional male cohort (Cohort 10) that received 3×35 mg (105 mg) of compound of Formula (III) in the fasted state. […]

>  <COMPOUND>
C=CC(=O)N[C@H]1CCC[C@H]1NC(=O)c1sc2nccc3c2c1NC(=O)N3c1cnc(CC(C)C)cc1C (atropisomer, axis not shown) [compound of Formula (III)]

>  <AUC(0-t)>
3700 ng·h/mL

$$$$

* * *

MEASUREMENT_DESCRIPTION: Preclinical PK, oral and IV
Type: in vivo, rat
ASSAY_CONTEXT: rat, in vivo, po, 5 mg/kg, 5 mg/kg crystalline suspension PO (0.5% HPMC); read-out: Oral AUCinf

>  <COMPOUND>
C=CC(=O)N[C@H]1CCC[C@H]1NC(=O)c1sc2nccc3c2c1NC(=O)N3c1cnc(CC(C)C)cc1C (atropisomer, axis not shown)

>  <UNITS_SYMBOL>
ng·h/mL

>  <AUC(0-inf)>
626

$$$$

* * *

MEASUREMENT_DESCRIPTION: Phase 1 first-in-human study, plasma pharmacokinetics
Assay type: in vivo
ASSAY_CONTEXT: male, human, plasma, po, 200 mg, single 200 mg oral solution, male fasted

>  <COMPOUND>
C=CC(=O)N[C@H]1CCC[C@H]1NC(=O)c1sc2nccc3c2c1NC(=O)N3c1cnc(CC(C)C)cc1C (atropisomer, axis not shown)

>  <AUC(0-inf) / ng·h/mL>
2780

$$$$

* * *

ASSAY_SYSTEM: BTK (Homo sapiens, UniProt Q06187)
Sequence (Q06187 whole entry): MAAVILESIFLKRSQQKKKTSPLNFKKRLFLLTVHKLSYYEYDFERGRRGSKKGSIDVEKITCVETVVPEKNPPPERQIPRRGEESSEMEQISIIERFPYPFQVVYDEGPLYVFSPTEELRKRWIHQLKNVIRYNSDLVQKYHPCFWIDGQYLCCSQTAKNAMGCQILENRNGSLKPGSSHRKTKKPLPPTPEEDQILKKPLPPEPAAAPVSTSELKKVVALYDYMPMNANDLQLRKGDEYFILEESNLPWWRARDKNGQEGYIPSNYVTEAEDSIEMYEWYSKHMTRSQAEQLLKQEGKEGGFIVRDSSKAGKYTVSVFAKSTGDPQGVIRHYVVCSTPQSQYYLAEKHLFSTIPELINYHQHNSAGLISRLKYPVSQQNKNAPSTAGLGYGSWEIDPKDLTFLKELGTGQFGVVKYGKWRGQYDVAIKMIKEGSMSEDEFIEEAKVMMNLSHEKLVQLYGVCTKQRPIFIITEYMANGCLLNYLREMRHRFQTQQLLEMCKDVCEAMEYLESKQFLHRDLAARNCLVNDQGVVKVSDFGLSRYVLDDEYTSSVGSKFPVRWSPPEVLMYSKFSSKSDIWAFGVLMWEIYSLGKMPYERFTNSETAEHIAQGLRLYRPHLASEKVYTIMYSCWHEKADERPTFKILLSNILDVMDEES
MEASUREMENT_DESCRIPTION: Eurofins KinaseProfiler/IC50Profiler radiometric kinase activity assay
Type: biochemical
ASSAY_CONTEXT: 10-point concentration response; read-out: IC50 (IC50 Profiler)
pIC50: −log10 of the molar value.

>  <MOLECULE>
C=CC(=O)N[C@H]1CCC[C@H]1NC(=O)c1sc2nccc3c2c1NC(=O)N3c1cnc(CC(C)C)cc1C (atropisomer, axis not shown)

>  <ASSAY_SYSTEM>
BTK (Homo sapiens, UniProt Q06187)

>  <pIC50>
6.25

$$$$

* * *

MEASUREMENT_DESCRIPTION: Plasma protein binding, equilibrium dialysis
Type: in vitro ADME, guinea pig
ASSAY_CONTEXT: guinea pig, plasma; 0.25 μM; read-out: % Free in plasma
MEASURED_PROPERTY: fraction unbound at 0.25 μM

>  <COMPOUND>
C=CC(=O)N[C@H]1CCC[C@H]1NC(=O)c1sc2nccc3c2c1NC(=O)N3c1cnc(CC(C)C)cc1C (atropisomer, axis not shown)

>  <READOUT_NUMBER>
0.0326

$$$$

* * *

MEASUREMENT_DESCRIPTION: Phase 1 first-in-human study, plasma pharmacokinetics
Format: in vivo
ASSAY_CONTEXT: male, human, plasma, po, 100 mg, single 100 mg oral solution, male fed (high-fat breakfast); read-out: t1/2, dom (converted)

>  <COMPOUND>
C=CC(=O)N[C@H]1CCC[C@H]1NC(=O)c1sc2nccc3c2c1NC(=O)N3c1cnc(CC(C)C)cc1C (atropisomer, axis not shown)

>  <UNITS_SYMBOL>
h

>  <half-life>
2

$$$$

* * *

MEASUREMENT_DESCRIPTION: Preclinical PK, oral and IV
Assay type: in vivo, monkey
ASSAY_CONTEXT: monkey, in vivo, iv; read-out: IV T1/2 (converted)
MEASURED_PROPERTY: half-life (h)

>  <COMPOUND>
C=CC(=O)N[C@H]1CCC[C@H]1NC(=O)c1sc2nccc3c2c1NC(=O)N3c1cnc(CC(C)C)cc1C (atropisomer, axis not shown)

>  <MEASURED_PROPERTY>
half-life

>  <READOUT_NUMBER>
4

$$$$

* * *

MEASUREMENT_DESCRIPTION: Phase 1 first-in-human study, plasma pharmacokinetics
Type: in vivo
ASSAY_CONTEXT: male, human, plasma, po, 12 mg, single 12 mg oral solution, male fasted; read-out: AUClast
MEASURED_PROPERTY: AUC(0-t) (ng·h/mL)

>  <COMPOUND>
C=CC(=O)N[C@H]1CCC[C@H]1NC(=O)c1sc2nccc3c2c1NC(=O)N3c1cnc(CC(C)C)cc1C (atropisomer, axis not shown)

>  <READOUT_NUMBER>
316

$$$$

* * *

MEASUREMENT_DESCRIPTION: Phase 1 first-in-human study, plasma pharmacokinetics
Assay type: in vivo
ASSAY_CONTEXT: male, human, plasma, po, 36 mg, single 36 mg oral solution, male fasted

>  <COMPOUND>
C=CC(=O)N[C@H]1CCC[C@H]1NC(=O)c1sc2nccc3c2c1NC(=O)N3c1cnc(CC(C)C)cc1C (atropisomer, axis not shown) [compound of Formula (III)]

>  <AUC(0-inf) (ng·h/mL)>
644

$$$$

* * *

Tested on: P-gp (MDR1)
MEASUREMENT_DESCRIPTION: in vitro
ASSAY_CONTEXT: dog, MDCK-MDR1
// efflux ratio at 5 μM lookup, one value per entry
MEASURED_PROPERTY: efflux ratio at 5 μM

>  <COMPOUND>
C=CC(=O)N[C@H]1CCC[C@H]1NC(=O)c1sc2nccc3c2c1NC(=O)N3c1cnc(CC(C)C)cc1C (atropisomer, axis not shown) [compound of Formula (III)]

>  <ASSAY_SYSTEM>
P-gp (MDR1)

>  <RESULT>
> 115

$$$$
>  <COMPOUND>
COc1cc2nc(N3CCN(C(=O)c4ccco4)CC3)nc(N)c2cc1OC [Prazosin]

>  <ASSAY_SYSTEM>
P-gp (MDR1)

>  <RESULT>
38.2

$$$$
>  <COMPOUND>
CC(C)NCC(O)COc1cccc2ccccc12 (stereo not drawn) [Propranolol, reference compound]

>  <ASSAY_SYSTEM>
P-gp (MDR1)

>  <RESULT>
1.3

$$$$

* * *

MEASUREMENT_DESCRIPTION: Caco-2 permeability
Type: in vitro ADME
ASSAY_CONTEXT: human; Caco-2, 5 μM
MEASURED_PROPERTY: Papp B→A at 5 μM (×10⁻⁶ cm/s)

>  <MOLECULE>
CC(C)NCC(O)COc1cccc2ccccc12 (centres unmarked) [Propranolol, reference compound]

>  <UNITS_SYMBOL>
×10⁻⁶ cm/s

>  <READOUT_NUMBER>
30.1

$$$$
>  <MOLECULE>
C=CC(=O)N[C@H]1CCC[C@H]1NC(=O)c1sc2nccc3c2c1NC(=O)N3c1cnc(CC(C)C)cc1C (atropisomer, axis not shown)

>  <UNITS_SYMBOL>
×10⁻⁶ cm/s

>  <READOUT_NUMBER>
54.9

$$$$
